B1: PPFIA4 (parent)
chain: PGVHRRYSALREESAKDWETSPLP

# Variants of: B1
# Assay summary: protein stability index of a GFP-peptide fusion (GPS, HEK-293T) (PSI 1-6); higher = more stable;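 note: lentivirally expressed fusions sorted by FACS into six bins by GFP to DsRed ratio, PSI derived from sequencing read proportions per bin multiplied by bin number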
# Stated conditions: c terminus: a fixed tail appended
Listed here are variants together with their documented protein stability index.
Answer as a number with no unit attached.

A selection of reference data follows.
> print(dat)
   changes  readout.value
1      R5L           3.99
2     E19T           3.96
3     E19L           3.97
4     K16R           3.99
5     R11H           3.67
6     D17N           3.98
7     E19D           4.03
8      H4A           4.25

query: # input variant: E19C ; wanted: its protein stability index
result: 3

query: Entry to check: V3E
result: 4.33

query: Entry to check: R5T
result: 3.91

query: Entry to check: E13T
result: 3.51

query: Entry to check: P24K
result: 4.6

query: Entry to check: V3P
result: 4.6

query: Entry to check: W18N
result: 5.29
